- experimental.target: Avi-KRAS G12C (2-169) GTP/RAF1 RBD-3xFLAG (51-131) (Homo sapiens, UniProt P01116, G12C)
- Construct: Avi-KRAS G12C (2-169)
- Sequence (P01116 2-169 isoform P01116-2 G12C): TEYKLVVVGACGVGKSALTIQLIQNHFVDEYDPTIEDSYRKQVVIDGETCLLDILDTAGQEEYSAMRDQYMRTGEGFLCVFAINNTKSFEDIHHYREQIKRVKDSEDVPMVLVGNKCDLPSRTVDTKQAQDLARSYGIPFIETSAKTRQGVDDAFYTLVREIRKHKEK
- assay.summary: Raf1-KRAS G12C-GTP disruption HTRF assay (Biological Example 3)
- Type: binding
- cond: KRAS G12C, GTP-loaded
- Method: Biological Example 3: Disrupting RAS-Effector Binding HTRF Assay A protein:protein interaction (PPI) Homogeneous Time Resolved Fluorescence (HTRF) assay was used to determine the effectiveness of compounds in disrupting KRAS protein and effector (RAF1) binding. […] Plates were analyzed on an Envision plate reader using the following setting: Excitation 320 nm, Bandwidth 75 nm; Emission 615 nm, Bandwidth 85 nm; Gain 100%; Flashes 100; Lag 60 μs. […] Data was plotted and analyzed using Prism 8. […]
pIC50: −log10 of the molar value.
Examples of molecules with documented pIC50 follow.

Report pIC50 for CCN(c1nc(OC[C@@]23CCCN2C[C@H](F)C3)nc2c(F)c(-c3ccc(F)c4sc(N)c(C#N)c34)c(C(F)(F)F)cc12)[C@H]1C[C@H](C)N(C(=O)N2CC(OC)C2)C1 (atropisomer, axis not shown)
6.00 to 7.00

Report pIC50 for CCN(c1nc(OC[C@@]23CCCN2C[C@H](F)C3)nc2c(F)c(-c3ccc(F)c4sc(N)c(C#N)c34)c(C(F)(F)F)cc12)[C@H]1CCN(c2ccccn2)C1
5.00 to 6.00

Others:
Report pIC50 for CN(Cc1ncoc1C#N)c1nc(OC[C@@]23CCCN2C[C@H](F)C3)nc2c(F)c(-c3ccc(F)c4sc(N)c(C#N)c34)c(C(F)(F)F)cc12 (atropisomer, axis not shown)
5.00 to 6.00

Report pIC50 for CCN(c1nc(OC[C@@]23CCCN2C[C@H](F)C3)nc2c(F)c(-c3ccc(F)c4sc(N)c(C#N)c34)c(C(F)(F)F)cc12)[C@H]1C[C@H](C)N(C(=O)C2C[C@H]2F)C1 (stereo partly shown)
≥ 7.00

Report pIC50 for CCN(c1nc(OC[C@]23CCCN2C[C@H](F)C3)nc2c(F)c(-c3ccc(F)c4sc(N)c(C#N)c34)c(C(F)(F)F)cc12)[C@H]1CCN(C(=O)C(C)C)C1
6.00 to 7.00

Report pIC50 for CCN(c1nc(OC[C@]23CCCN2C[C@H](F)C3)nc2c(F)c(-c3ccc(F)c4sc(N)c(C#N)c34)c(C(F)(F)F)cc12)[C@H]1CCN(C(=O)OC)C1 (atropisomer, axis not shown) [Compound 955]
< 5.00

Report pIC50 for CN(Cc1cncnc1)c1nc(OC[C@@]23CCCN2C[C@H](F)C3)nc2c(F)c(-c3ccc(F)c4sc(N)c(C#N)c34)c(C(F)(F)F)cc12 (atropisomer, axis not shown)
5.00 to 6.00

Report pIC50 for CCN(c1nc(OC[C@@]23CCCN2C[C@H](F)C3)nc2c(F)c(-c3ccc(F)c4sc(N)c(C#N)c34)c(C(F)(F)F)cc12)[C@H]1C[C@H](C)N(C(=O)OC2CC(OC)C2)C1 (stereo partly shown)
6.00 to 7.00

Report pIC50 for CCN(c1nc(OC[C@@]23CCCN2C[C@H](F)C3)nc2c(F)c(-c3ccc(F)c4sc(N)c(C#N)c34)c(C(F)(F)F)cc12)[C@H]1C[C@H](COC)N(C(=O)C2CC2(F)F)C1 (stereo partly shown)
6.00 to 7.00

Report pIC50 for CCN(c1nc(OCC23CCCN2CC(F)C3)nc2c(F)c(-c3ccc(F)c4sc(N)c(C#N)c34)c(C(F)(F)F)cc12)C1CCN(C(=O)c2ncns2)C1 (stereo not shown)
6.00 to 7.00
